# Test system: DU-145
# protocol_description: Cytotoxicity against human DU145 cells after 24 hrs by MTT assay
# Format: functional, cell-based
# condition_details: DU-145, 24 h
Where a name gives a salt, the structure may show the parent alone.
observable: pIC50
Keep in mind that pIC50 stands for -log10 of concentration in molar terms.

## Input Quick one: pIC50 for CC(=O)O[C@H]1C(=O)[C@@]2(C)[C@H]([C@H](OC(=O)c3ccccc3)[C@]3(O)C[C@H](OC(=O)[C@H](O)[C@@H](NC(=O)c4ccccc4)c4ccccc4)C(C)=C1C3(C)C)[C@]1(OC(C)=O)CO[C@@H]1C[C@@H]2O ?
## Output 5.75

## Input Quick one: pIC50 for COc1cccc2c1C(=O)c1c(O)c3c(c(O)c1C2=O)C[C@@](O)(C(=O)CO)C[C@@H]3O[C@H]1C[C@H](N)[C@H](O)[C@H](C)O1 [DOXORUBICIN HYDROCHLORIDE] ?
## Output 4.67
